# test_system: Genome polyprotein (Dengue virus type 2 (strain 16681-PDK53)) (UniProt P29991)
# Sequence (P29991 whole entry, looked up): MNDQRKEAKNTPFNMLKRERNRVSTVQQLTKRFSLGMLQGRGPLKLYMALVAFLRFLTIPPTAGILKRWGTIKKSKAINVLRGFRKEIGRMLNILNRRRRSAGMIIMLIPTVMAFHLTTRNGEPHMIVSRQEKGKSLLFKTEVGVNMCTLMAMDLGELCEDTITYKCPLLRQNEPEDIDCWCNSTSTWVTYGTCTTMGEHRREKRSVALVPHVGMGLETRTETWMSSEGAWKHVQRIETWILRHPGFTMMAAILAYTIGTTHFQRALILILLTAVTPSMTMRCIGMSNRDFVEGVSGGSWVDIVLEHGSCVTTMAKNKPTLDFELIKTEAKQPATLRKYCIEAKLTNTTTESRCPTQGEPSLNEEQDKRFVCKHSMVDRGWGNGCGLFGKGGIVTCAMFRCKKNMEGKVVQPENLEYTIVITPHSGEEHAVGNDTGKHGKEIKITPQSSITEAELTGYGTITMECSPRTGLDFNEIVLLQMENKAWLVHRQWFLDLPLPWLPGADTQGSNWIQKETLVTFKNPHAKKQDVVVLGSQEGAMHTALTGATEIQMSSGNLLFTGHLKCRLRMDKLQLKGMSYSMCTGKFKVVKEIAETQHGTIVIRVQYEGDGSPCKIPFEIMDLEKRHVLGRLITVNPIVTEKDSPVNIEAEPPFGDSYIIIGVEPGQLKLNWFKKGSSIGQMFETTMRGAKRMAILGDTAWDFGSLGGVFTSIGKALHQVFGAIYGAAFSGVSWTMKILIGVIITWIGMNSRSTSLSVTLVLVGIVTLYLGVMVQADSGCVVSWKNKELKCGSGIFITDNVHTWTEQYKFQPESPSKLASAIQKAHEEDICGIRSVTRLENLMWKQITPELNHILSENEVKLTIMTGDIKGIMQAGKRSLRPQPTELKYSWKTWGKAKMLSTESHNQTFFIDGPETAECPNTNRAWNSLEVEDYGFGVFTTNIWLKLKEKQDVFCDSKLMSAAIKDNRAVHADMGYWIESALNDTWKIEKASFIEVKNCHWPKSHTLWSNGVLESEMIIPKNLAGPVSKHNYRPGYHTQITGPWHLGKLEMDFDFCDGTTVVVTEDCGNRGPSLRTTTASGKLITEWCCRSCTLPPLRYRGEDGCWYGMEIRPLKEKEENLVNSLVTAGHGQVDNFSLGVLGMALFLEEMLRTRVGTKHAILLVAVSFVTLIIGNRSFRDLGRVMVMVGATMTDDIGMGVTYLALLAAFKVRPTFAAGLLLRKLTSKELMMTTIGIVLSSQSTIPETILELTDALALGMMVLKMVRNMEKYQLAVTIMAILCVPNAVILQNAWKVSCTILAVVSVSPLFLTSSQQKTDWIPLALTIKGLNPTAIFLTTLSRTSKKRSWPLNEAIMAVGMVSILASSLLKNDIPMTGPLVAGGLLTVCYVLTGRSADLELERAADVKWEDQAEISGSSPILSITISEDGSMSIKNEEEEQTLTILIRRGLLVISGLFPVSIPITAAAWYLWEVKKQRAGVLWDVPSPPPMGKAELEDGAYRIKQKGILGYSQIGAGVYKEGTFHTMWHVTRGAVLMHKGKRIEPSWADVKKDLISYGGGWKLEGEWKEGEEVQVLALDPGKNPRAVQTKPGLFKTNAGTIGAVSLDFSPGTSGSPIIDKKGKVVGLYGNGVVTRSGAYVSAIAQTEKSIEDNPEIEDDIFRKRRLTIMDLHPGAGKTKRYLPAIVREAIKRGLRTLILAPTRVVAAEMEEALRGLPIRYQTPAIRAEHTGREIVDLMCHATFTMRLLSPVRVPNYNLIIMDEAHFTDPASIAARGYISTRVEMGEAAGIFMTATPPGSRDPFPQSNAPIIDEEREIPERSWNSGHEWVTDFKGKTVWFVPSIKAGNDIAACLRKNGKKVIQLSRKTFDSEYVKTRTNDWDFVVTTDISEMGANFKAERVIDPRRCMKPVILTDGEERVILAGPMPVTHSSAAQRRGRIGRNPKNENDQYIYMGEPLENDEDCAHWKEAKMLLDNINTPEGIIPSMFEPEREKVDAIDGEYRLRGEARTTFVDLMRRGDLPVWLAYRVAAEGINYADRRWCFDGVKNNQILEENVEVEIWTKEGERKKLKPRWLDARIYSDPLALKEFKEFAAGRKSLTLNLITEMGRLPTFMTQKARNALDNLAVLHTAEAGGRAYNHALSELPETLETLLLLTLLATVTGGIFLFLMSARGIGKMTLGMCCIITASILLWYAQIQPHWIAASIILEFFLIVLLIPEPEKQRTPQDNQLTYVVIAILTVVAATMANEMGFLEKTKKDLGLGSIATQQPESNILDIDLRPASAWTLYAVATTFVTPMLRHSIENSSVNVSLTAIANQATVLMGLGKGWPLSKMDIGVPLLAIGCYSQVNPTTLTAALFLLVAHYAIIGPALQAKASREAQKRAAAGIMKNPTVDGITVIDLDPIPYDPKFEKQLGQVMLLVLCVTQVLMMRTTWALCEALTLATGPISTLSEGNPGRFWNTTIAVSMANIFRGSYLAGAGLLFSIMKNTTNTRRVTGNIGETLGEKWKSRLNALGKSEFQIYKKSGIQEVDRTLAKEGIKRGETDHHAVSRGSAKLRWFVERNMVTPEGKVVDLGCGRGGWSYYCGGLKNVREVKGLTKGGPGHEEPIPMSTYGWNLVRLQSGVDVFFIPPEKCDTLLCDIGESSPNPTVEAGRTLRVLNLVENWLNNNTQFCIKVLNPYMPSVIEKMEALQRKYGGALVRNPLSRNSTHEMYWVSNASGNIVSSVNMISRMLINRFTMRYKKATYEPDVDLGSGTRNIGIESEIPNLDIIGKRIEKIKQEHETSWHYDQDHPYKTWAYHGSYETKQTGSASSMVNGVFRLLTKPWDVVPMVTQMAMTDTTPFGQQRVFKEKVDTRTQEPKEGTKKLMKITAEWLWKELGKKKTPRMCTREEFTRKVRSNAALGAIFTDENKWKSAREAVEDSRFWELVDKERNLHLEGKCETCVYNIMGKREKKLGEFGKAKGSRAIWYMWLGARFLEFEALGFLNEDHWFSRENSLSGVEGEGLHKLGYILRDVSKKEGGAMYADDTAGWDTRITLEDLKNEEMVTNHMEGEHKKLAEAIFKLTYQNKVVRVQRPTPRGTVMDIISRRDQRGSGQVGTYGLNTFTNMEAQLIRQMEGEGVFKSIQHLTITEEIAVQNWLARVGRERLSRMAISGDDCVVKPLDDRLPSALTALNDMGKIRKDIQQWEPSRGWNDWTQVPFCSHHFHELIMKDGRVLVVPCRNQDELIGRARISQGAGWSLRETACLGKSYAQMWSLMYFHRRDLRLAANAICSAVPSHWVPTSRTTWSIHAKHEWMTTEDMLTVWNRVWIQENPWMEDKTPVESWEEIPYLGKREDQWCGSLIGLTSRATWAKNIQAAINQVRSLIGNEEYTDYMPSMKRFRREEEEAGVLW
# assay_text: flavivirus cap methylation enzyme inhibition – biochemical, confirmation dose response, primary screen (AID 588689)
# stated_conditions: Dengue-2 NS5 methyltransferase capping enzyme assay, at 25 µM, hits give high values
Hit rate of the full screen: of about 340,000 compounds, about 1,000 (0.29%) were called active. Not all results are given here. Results with a measured potency or affinity are listed apart.
Catalogue of inhibition values
Quick reminder: number only, in %, skip the unit.

Previously resolved entries follow.
Dear colleague, please send me the reported inhibition for CSc1ccc(C=NNc2ccc(S(=O)(=O)Nc3ccccc3C(=O)O)cc2[N+](=O)[O-])cc1 when you can.
18.3

Dear colleague, please send me the reported inhibition for O=C(O)C1CCN(C(=O)Cc2ccccc2)CC1 when you can.
2.22

Dear colleague, please send me the reported inhibition for COc1ccc(S(=O)(=O)/C(C#N)=C/Nc2cccc(F)c2)cc1 when you can.
-2.28

Dear colleague, please send me the reported inhibition for O=C(O)c1cccc2c1/C(=N/Nc1ccc([N+](=O)[O-])cc1[N+](=O)[O-])c1ccccc1-2 when you can.
20.5

Dear colleague, please send me the reported inhibition for CCOc1ccc(C=NNc2ccc(S(=O)(=O)Nc3ccccc3C(=O)O)cc2[N+](=O)[O-])cc1OC when you can.
7.77

Dear colleague, please send me the reported inhibition for CC1(C)CC(=O)C(C(c2ccc(F)cc2)C2C(=O)CC(C)(C)CC2=O)C(=O)C1 when you can.
-0.73

Dear colleague, please send me the reported inhibition for COc1ccc(-c2ccc(SCC(=O)N3CC(=O)Nc4ccccc43)nn2)cc1 when you can.
-4.15

Dear colleague, please send me the reported inhibition for CC(C)Cn1c(SCC(=O)N2CC(=O)Nc3ccccc32)nc2ccccc21 when you can.
-0.64

---
Dear colleague, please send me the reported inhibition for COc1ccc(C2=CC(=O)CC(C)(C)C2)cc1 when you can.
2.79

Dear colleague, please send me the reported inhibition for CCC(C(=O)O)P(=O)(c1ccc(Cl)cc1)c1ccc(Cl)cc1 (stereo not given) when you can.
-8.59
